Readings of apparent Kd (screen) for the listed binders
Biological target: T1, TNFR1 (Homo sapiens, UniProt P19438)
T1 chain: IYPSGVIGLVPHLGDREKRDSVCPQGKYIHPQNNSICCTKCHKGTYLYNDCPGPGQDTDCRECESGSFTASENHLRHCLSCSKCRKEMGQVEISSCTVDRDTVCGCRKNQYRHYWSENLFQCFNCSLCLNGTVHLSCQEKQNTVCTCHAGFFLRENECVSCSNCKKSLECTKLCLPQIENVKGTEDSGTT
Assay: yeast display SC50

binder	apparent Kd (screen), nM
K16L (designed binder) SMEEEVEKAAKEYEKLKKEAIEKHLEKLKAKDKEAAERFLKELEEAAKEYAKDEAKTMSEEEAKRRAKKYKEKVLLSELSEEEQKEIKEAEEKLVRTILKYVEEAAK	0.446
E81A (designed binder) SMEEEVEKAAKEYEKKKKEAIEKHLEKLKAKDKEAAERFLKELEEAAKEYAKDEAKTMSEEEAKRRAKKYKEKVLLSELSAEEQKEIKEAEEKLVRTILKYVEEAAK	0.718
A30E (designed binder) SMEEEVEKAAKEYEKKKKEAIEKHLEKLKEKDKEAAERFLKELEEAAKEYAKDEAKTMSEEEAKRRAKKYKEKVLLSELSEEEQKEIKEAEEKLVRTILKYVEEAAK	0.277
A20C (designed binder) SMEEEVEKAAKEYEKKKKECIEKHLEKLKAKDKEAAERFLKELEEAAKEYAKDEAKTMSEEEAKRRAKKYKEKVLLSELSEEEQKEIKEAEEKLVRTILKYVEEAAK	0.718
K85D (designed binder) SMEEEVEKAAKEYEKKKKEAIEKHLEKLKAKDKEAAERFLKELEEAAKEYAKDEAKTMSEEEAKRRAKKYKEKVLLSELSEEEQDEIKEAEEKLVRTILKYVEEAAK	0.446
E83N (designed binder) SMEEEVEKAAKEYEKKKKEAIEKHLEKLKAKDKEAAERFLKELEEAAKEYAKDEAKTMSEEEAKRRAKKYKEKVLLSELSEENQKEIKEAEEKLVRTILKYVEEAAK	0.79
K56H (designed binder) SMEEEVEKAAKEYEKKKKEAIEKHLEKLKAKDKEAAERFLKELEEAAKEYAKDEAHTMSEEEAKRRAKKYKEKVLLSELSEEEQKEIKEAEEKLVRTILKYVEEAAK	4.83
E34S (designed binder) SMEEEVEKAAKEYEKKKKEAIEKHLEKLKAKDKSAAERFLKELEEAAKEYAKDEAKTMSEEEAKRRAKKYKEKVLLSELSEEEQKEIKEAEEKLVRTILKYVEEAAK	0.718
K17P (designed binder) SMEEEVEKAAKEYEKKPKEAIEKHLEKLKAKDKEAAERFLKELEEAAKEYAKDEAKTMSEEEAKRRAKKYKEKVLLSELSEEEQKEIKEAEEKLVRTILKYVEEAAK	22.2
L43T (designed binder) SMEEEVEKAAKEYEKKKKEAIEKHLEKLKAKDKEAAERFLKETEEAAKEYAKDEAKTMSEEEAKRRAKKYKEKVLLSELSEEEQKEIKEAEEKLVRTILKYVEEAAK	0.49
E19G (designed binder) SMEEEVEKAAKEYEKKKKGAIEKHLEKLKAKDKEAAERFLKELEEAAKEYAKDEAKTMSEEEAKRRAKKYKEKVLLSELSEEEQKEIKEAEEKLVRTILKYVEEAAK	0.49
K85S (designed binder) SMEEEVEKAAKEYEKKKKEAIEKHLEKLKAKDKEAAERFLKELEEAAKEYAKDEAKTMSEEEAKRRAKKYKEKVLLSELSEEEQSEIKEAEEKLVRTILKYVEEAAK	0.593
E42T (designed binder) SMEEEVEKAAKEYEKKKKEAIEKHLEKLKAKDKEAAERFLKTLEEAAKEYAKDEAKTMSEEEAKRRAKKYKEKVLLSELSEEEQKEIKEAEEKLVRTILKYVEEAAK	9.41
K73V (designed binder) SMEEEVEKAAKEYEKKKKEAIEKHLEKLKAKDKEAAERFLKELEEAAKEYAKDEAKTMSEEEAKRRAKKYKEVVLLSELSEEEQKEIKEAEEKLVRTILKYVEEAAK	10.4
T97W (designed binder) SMEEEVEKAAKEYEKKKKEAIEKHLEKLKAKDKEAAERFLKELEEAAKEYAKDEAKTMSEEEAKRRAKKYKEKVLLSELSEEEQKEIKEAEEKLVRWILKYVEEAAK	2.48
L76R (designed binder) SMEEEVEKAAKEYEKKKKEAIEKHLEKLKAKDKEAAERFLKELEEAAKEYAKDEAKTMSEEEAKRRAKKYKEKVLRSELSEEEQKEIKEAEEKLVRTILKYVEEAAK	7.07

Every entry's value here was drawn from paper PMC12416549.
